Measured values drawn from patent US10047098B2 for this set.

Target: Recombinant human soluble BACE1 catalytic domain (Homo sapiens (Human))
Assay: BACE1 HTRF FRET Assay
Settings: Ki calculated from IC50 using the Cheng-Prusoff equation; QSY7-APPswe-Eu substrate, pH 5.0; read-out: BACE-1 Ki
property.label: Ki (nM)
Just the number please, in nM, no unit attached.

Examples with answers:
{"columns": ["molecule", "measured.number"],
 "data": [
  ["C[C@H]1C[C@H]2C(=O)N(C)C(=N)N[C@@]2(c2cc(Oc3ncccc3F)ncc2F)CO1 [Example 96]", 145],
  ["C[C@H]1C[C@H]2C(=O)N(C)C(=N)N[C@@]2(c2cc(Oc3ncc(F)cc3F)ccc2F)CO1 [Example 36]", 8.9],
  ["CN1C(=N)N[C@@]2(c3ccc(F)cc3F)CO[C@@H](C3CC3)C[C@H]2C1=O [Example 6]", 99],
  ["CN1C(=N)N[C@@]2(c3cc(Oc4cccc(-n5cccn5)n4)ccc3F)CO[C@@H](C3CC3)C[C@H]2C1=O [Example 34]", 2.2],
  ["C[C@H]1C[C@H]2C(=O)N(C)C(=N)N[C@@]2(c2cc(Oc3cc(F)cnc3F)ccc2F)CO1 [Example 80]", 8.5]
]}

Next molecule, Ki to be filled in.
Query: Tell us which Ki value is on record for CN1C(=N)N[C@@]2(c3cc(Oc4ccnc(-n5cncn5)c4)ccc3F)CO[C@@H](C3CC3)C[C@H]2C1=O [Example 16]
Result: 43

* * *

Molecular target: Recombinant human soluble BACE1 catalytic domain (Homo sapiens (Human))
Experiment: BACE1 HTRF FRET Assay
Conditions: Ki calculated from IC50 using the Cheng-Prusoff equation; QSY7-APPswe-Eu substrate, pH 5.0; read-out: BACE-1 Ki
# pKi per entry
Quick note: pKi values are minus log10 of concentrations in mol/L.

Solved cases below.
{"columns": ["molecule", "pKi"],
 "data": [
  ["C[C@H]1C[C@H]2C(=O)N(C)C(=N)N[C@@]2(c2cc(O)ccc2F)CO1 [Example 64]", 6.45],
  ["COC[C@H]1C[C@H]2C(=O)N(C)C(=N)N[C@@]2(c2cc(Oc3cc(C#N)ccn3)c(F)cc2F)CO1 [Example 2]", 8.52],
  ["COc1cncc(Oc2ccc(F)c([C@]34CO[C@@H](C)C[C@H]3C(=O)N(C)C(=N)N4)c2)n1 [Example 65]", 8.18]
]}

Query: Give the reported value of pKi for this record: COC(=O)[C@@H]1C[C@H]2C(=O)N(C)C(=N)N[C@@]2(c2ccc(F)cc2F)CO1 [Example 48]
Result: 5.96

Query: Give pKi for the following molecule: CN1C(=N)N[C@@]2(c3cc(Oc4ccnnc4)ccc3F)CO[C@@H](C3CC3)C[C@H]2C1=O [Example 41]
Result: 6.97

Query: Please give measured pKi of the following entry: C=CCCOc1cc([C@]23CO[C@@H](C)C[C@H]2C(=O)N(C)C(=N)N3)c(F)cn1 [Example 93]
Result: 7.79

Query: Specify pKi for C[C@H]1C[C@H]2C(=O)N(C)C(=N)N[C@@]2(c2cc(Oc3cccnc3)ccc2F)CO1 [Example 81] and stop.
Result: 7.57

* * *

Biological target: purified human autoBACE-2 (Homo sapiens (Human), UniProt Q9Y5Z0)
Sequence (Q9Y5Z0 63-473 limits assumed): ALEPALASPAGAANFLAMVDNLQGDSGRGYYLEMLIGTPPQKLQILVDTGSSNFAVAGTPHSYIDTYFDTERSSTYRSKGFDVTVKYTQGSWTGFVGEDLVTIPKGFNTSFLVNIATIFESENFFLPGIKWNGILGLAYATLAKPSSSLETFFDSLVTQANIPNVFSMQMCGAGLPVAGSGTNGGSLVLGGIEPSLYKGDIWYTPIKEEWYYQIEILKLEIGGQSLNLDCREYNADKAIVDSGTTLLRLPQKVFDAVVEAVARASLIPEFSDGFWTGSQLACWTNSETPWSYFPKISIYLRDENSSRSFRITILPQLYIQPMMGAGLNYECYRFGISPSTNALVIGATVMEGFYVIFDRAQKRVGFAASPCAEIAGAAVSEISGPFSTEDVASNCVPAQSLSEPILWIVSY
property.label: Ki (nM)
State the answer as a number, implicitly in nM.

Worked examples follow.
{"columns": ["compound", "unit.tag", "Ki"],
 "data": [
  ["COc1cncc(Oc2ccc(F)c([C@]34CO[C@@H](C)C[C@H]3C(=O)N(C)C(=N)N4)c2)n1 [Example 65]", "nM", 15.8],
  ["COc1cncc(Oc2ccc(F)c([C@]34CO[C@@H](C5CC5)C[C@H]3C(=O)N(C)C(=N)N4)c2)n1 [Example 42]", "nM", 51],
  ["C[C@H]1C[C@H]2C(=O)N(C)C(=N)N[C@@]2(c2cc(Oc3cc4ccccc4cn3)ccc2F)CO1 [Example 77]", "nM", 242],
  ["C[C@H]1C[C@H]2C(=O)N(C)C(=N)N[C@@]2(c2cc(Oc3ccncc3F)ccc2F)CO1 [Example 74]", "nM", 31.5]
]}

Query: Identify measured Ki obtained with purified human autoBACE-2 (Homo sapiens (Human), UniProt Q9Y5Z0) for COC1CC(COc2ccc(F)c([C@]34CO[C@@H](C5CC5)C[C@H]3C(=O)N(C)C(=N)N4)c2)C1 (some centres unmarked) [Example 53] .
Result: 117

Query: Please tell me the measured Ki for C[C@H]1C[C@H]2C(=O)N(C)C(=N)N[C@@]2(c2cc(Oc3cc(F)cnc3F)ccc2F)CO1 [Example 80] ; system: purified human autoBACE-2 (Homo sapiens (Human), UniProt Q9Y5Z0).
Result: 22.3

Query: Would you please give the reported Ki of CN1C(=N)N[C@@]2(c3cc(-c4cncnc4)ccc3F)CO[C@@H](C3CC3)C[C@H]2C1=O [Example 28] with purified human autoBACE-2 (Homo sapiens (Human), UniProt Q9Y5Z0)?
Result: 627

Query: Report Ki on purified human autoBACE-2 (Homo sapiens (Human), UniProt Q9Y5Z0) for this entry: COC[C@H]1C[C@H]2C(=O)N(C)C(=N)N[C@@]2(c2cc(Oc3cc(OC)ccn3)c(F)cc2F)CO1 [Example 4]
Result: 61

* * *

Molecular target: purified human autoBACE-2 (Homo sapiens (Human))
log10 Ki values for the compounds below.
Heads up: the numbers are on a log10 scale; they represent Ki in µM.

Query: Under purified human autoBACE-2 (Homo sapiens (Human)): report log10 Ki of CN1C(=N)N[C@@]2(c3cc(Oc4cncc(C(F)F)n4)ccc3F)CO[C@@H](C3CC3)C[C@H]2C1=O .
Result: -1.27

Query: Give measured log10 Ki for C[C@H]1C[C@H]2C(=O)N(C)C(=N)N[C@@]2(c2cc(Oc3ncccc3Cl)ccc2F)CO1 (purified human autoBACE-2 (Homo sapiens (Human))).
Result: -2.01

Query: Supply log10 Ki measured with purified human autoBACE-2 (Homo sapiens (Human)) for CN1C(=N)N[C@@]2(c3cc(OCC4CC4)ccc3F)COCC[C@H]2C1=O .
Result: -2.22

* * *

Target: Recombinant human soluble BACE1 catalytic domain (Homo sapiens (Human))
Assay: BACE1 HTRF FRET Assay
Conditions: Ki calculated from IC50 using the Cheng-Prusoff equation; QSY7-APPswe-Eu substrate, pH 5.0; read-out: BACE-1 Ki
Reported pKi values are given for each entry in this list.
A value of pKi is the negative decimal logarithm of a concentration given in moles per litre.

Sample records with pKi:
{"columns": ["chemical.smiles", "property.label", "measured.number"],
 "data": [
  ["C[C@H]1C[C@H]2C(=O)N(C)C(=N)N[C@@]2(c2cc(OCC34CC(C#N)(C3)C4)ccc2F)CO1", "pKi", 8.10],
  ["COC[C@H]1C[C@H]2C(=O)N(C)C(=N)N[C@@]2(c2cc(Oc3cc(OC)ccn3)c(F)cc2F)CO1", "pKi", 7.70],
  ["Cc1cncc(Oc2ccc(F)c([C@]34CO[C@@H](C)C[C@H]3C(=O)N(C)C(=N)N4)c2)n1", "pKi", 7.88]
]}

Query: Return reported pKi. Input compound: C[C@H]1C[C@H]2C(=O)N(C)C(=N)N[C@@]2(c2cc(Oc3ccc(F)cn3)ccc2F)CO1
Result: 6.80

* * *

Target: Recombinant human soluble BACE1 catalytic domain (Homo sapiens (Human), UniProt P56817)
Sequence (P56817 75-416): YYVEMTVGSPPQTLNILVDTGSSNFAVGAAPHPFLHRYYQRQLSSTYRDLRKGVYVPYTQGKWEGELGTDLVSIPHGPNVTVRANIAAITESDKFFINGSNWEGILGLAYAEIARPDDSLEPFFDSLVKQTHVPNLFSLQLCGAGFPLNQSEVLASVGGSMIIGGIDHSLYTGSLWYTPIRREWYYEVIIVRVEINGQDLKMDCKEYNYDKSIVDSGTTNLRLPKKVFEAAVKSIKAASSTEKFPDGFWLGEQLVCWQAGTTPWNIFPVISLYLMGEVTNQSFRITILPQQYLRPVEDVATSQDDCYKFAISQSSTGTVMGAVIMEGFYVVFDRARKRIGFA
Assay: BACE1 HTRF FRET Assay
Conditions: Ki calculated from IC50 using the Cheng-Prusoff equation; QSY7-APPswe-Eu substrate, pH 5.0; read-out: BACE-1 Ki
property.label: log10 Ki (log10 of the value in nM)
// do not treat as linear: log10 of Ki, unit nM

As a guide, the following entries are already answered.
{"columns": ["chemical.smiles", "measured.number"],
 "data": [
  ["CN1C(=N)N[C@@]2(c3cc(OCC(F)(F)F)ccc3F)CO[C@@H](C3CC3)C[C@H]2C1=O", 2.80],
  ["C[C@H]1C[C@H]2C(=O)N(C)C(=N)N[C@@]2(c2cc(Oc3cc(C#N)ccn3)ccc2F)CO1", 0.78],
  ["CN1C(=N)N[C@@]2(c3cc(OCC45CC(C#N)(C4)C5)ccc3F)CO[C@@H](C3CC3)C[C@H]2C1=O", 0.95],
  ["CN1C(=N)N[C@@]2(c3cc(Oc4ncccc4F)ccc3F)CO[C@@H](C3CC3)C[C@H]2C1=O", 0.30],
  ["C[C@H]1C[C@H]2C(=O)N(C)C(=N)N[C@@]2(c2cc(OCC3CC3)ccc2F)CO1", 1.11]
]}

Query: Give log10 Ki for the following compound: CN1C(=N)N[C@@]2(c3cc(Br)ccc3F)COCC[C@H]2C1=O
Result: 3.08

Query: Tell me log10 Ki reported for CCCOc1ccc(F)c([C@]23CO[C@@H](C4CC4)C[C@H]2C(=O)N(C)C(=N)N3)c1
Result: 1.82
